MFI for assorted binders
- measurement target: human DLL3 endogenously expressed on SHP77 and NCI-H82 cells (human) (UniProt Q9NYJ7)
- Sequence (Q9NYJ7 27-618): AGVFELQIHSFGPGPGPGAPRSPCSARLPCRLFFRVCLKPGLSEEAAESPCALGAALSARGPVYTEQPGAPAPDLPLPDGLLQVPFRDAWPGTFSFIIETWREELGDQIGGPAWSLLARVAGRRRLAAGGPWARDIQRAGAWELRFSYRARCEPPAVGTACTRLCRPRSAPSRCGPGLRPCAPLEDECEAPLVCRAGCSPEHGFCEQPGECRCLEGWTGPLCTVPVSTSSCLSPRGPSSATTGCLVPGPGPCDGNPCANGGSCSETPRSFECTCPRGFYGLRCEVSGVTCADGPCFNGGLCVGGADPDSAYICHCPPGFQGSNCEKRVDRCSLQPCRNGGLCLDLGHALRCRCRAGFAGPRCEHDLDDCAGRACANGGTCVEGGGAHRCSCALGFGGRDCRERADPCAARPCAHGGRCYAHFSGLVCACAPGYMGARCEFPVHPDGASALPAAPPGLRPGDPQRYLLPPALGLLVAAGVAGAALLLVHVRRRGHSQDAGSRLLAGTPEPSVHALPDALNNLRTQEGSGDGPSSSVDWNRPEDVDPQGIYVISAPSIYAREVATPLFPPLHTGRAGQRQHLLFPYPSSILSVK
- measurement protocol: FACS SHP77 cells, 0.0064 nM
measured property: MFI (MFI)

{"binder": "mab014 scFv-hFc (Fc fusion, not shown: small tags and cut ends; a dimerising Fc or GST) scFv (part 1 of 2): DIQMTQSSSSFSVSLGDRVTITCKASEDIYNRLAWYQQKPGNTPRLLISGATSLETGVPSRFSGSGSGKDFTLSITSLQTEDVATYYCQQYWSLPWTFGGGTKLEIK scFv (part 2 of 2): EVQLHQSGPELVKPGTSVKISCKASGYTFTDYYMNWVKQSHGKSLEWIGDINPNHGDTGYNQKFTGKATLTVDKSSSTAYMELRSLTSEDSAVYYCARNFFYYGTTYGWYFDVWGTGTTVTVSS", "endpoint value": 104}
{"binder": "mab002 scFv-hFc (Fc fusion, not shown: small tags and cut ends; a dimerising Fc or GST) scFv (part 1 of 2): QIVLTQSPAIMSASPGEKVTMTCSARSSVSYMQWYQQKSGTSPKRWIYDTSKLASGVPARFSGSGSGTSYSLTISTMEAEDAATYYCQQWSSDPPTFGGGTKLEIK scFv (part 2 of 2): QIQLVQSGPELKKPGETVKISCKASGYTFTNYGMNWLKQAPGKGLKWMGWINTYTGESTYADDFKGRFAFSLETSASTVYLQINNLKNEDMATYFCARMGDGYYDFTMDYWGQGTSVTVSS", "endpoint value": 255}
{"binder": "mab016 scFv-hFc (Fc fusion, not shown: small tags and cut ends; a dimerising Fc or GST) scFv (part 1 of 2): DIVMTQSQKFMSTTIGDRVSITCKASQNVGTTVAWYQQKPGQSPNLLLYSTSNRFTGVPDRFTGSGSGTDFTLTITNMQSEDLADYFCQQYNNYPLTFGGGTKLEIK scFv (part 2 of 2): EVNLEESGGGLVQPGGSMKLSCVASGFAFSNFWMQWVRQSPEKGLEWVAQIRLKSDNYAAHYAESVKGRFTISRDDSKSSVYLQLNNLRAEDTGTYYCTQGNWVGFAYWGQGTLVTVSA", "endpoint value": 121}
